Entries annotated with measured IC50
System: MOLM14
ASSAY: Proliferation assay (spheroid assay) MOLM14
Assay type: cell-based, human
CONDITION SET: Homo sapiens, MOLM-14, MOLM14; averaged values; read-out: Spheroid assay MOLM14 (IC50 (μM))
REPORTED ENDPOINT: IC50 (µM)

[
  {
    "COMPOUND": "CC[C@H](c1cnn(C)c1)N1CC2(CCN(c3ncnc4sc(CC(F)(F)F)cc34)C2)C1",
    "UNITS SYMBOL": "µM",
    "VAL": 4.7
  },
  {
    "COMPOUND": "FC(F)(F)Cc1cc2c(N3CCC4(CN(CC5CC6(CCC6)C5)C4)C3)ncnc2s1",
    "UNITS SYMBOL": "µM",
    "VAL": 2
  },
  {
    "COMPOUND": "Cn1cc(CN2CC[C@@]3(CCN(c4ncnc5sc(CC(F)(F)F)cc45)C3)C2)cn1 (single isomer, unassigned)",
    "UNITS SYMBOL": "µM",
    "VAL": 6.7
  },
  {
    "COMPOUND": "FC(F)(F)Cc1cc2c(N3CCC4(CN(Cc5ccc[nH]5)C4)C3)ncnc2s1",
    "UNITS SYMBOL": "µM",
    "VAL": 7.2
  }
]

* * *

System: MOLM14
ASSAY: Proliferation assay (spheroid assay) MOLM14
Format: cell-based, human
CONDITION SET: Homo sapiens, MOLM-14, MOLM14; averaged values; read-out: Spheroid assay MOLM14 (IC50 (μM))
# reported IC50; entries follow

[
  {
    "COMPOUND": "Cn1cc2c(n1)CCCC2N1CC2(CCN(c3ncnc4sc(CC(F)(F)F)cc34)C2)C1 (single isomer, unassigned) [Compound 137]",
    "UNITS SYMBOL": "µM",
    "LIMIT QUALIFIER": ">",
    "IC50": 15
  },
  {
    "COMPOUND": "Fc1ccc(CN2CC[C@@]3(CCN(c4ncnc5sc(CC(F)(F)F)cc45)C3)C2)cc1 (single isomer, unassigned) [Compound 292]",
    "UNITS SYMBOL": "µM",
    "LIMIT QUALIFIER": "=",
    "IC50": 1.5
  },
  {
    "COMPOUND": "CC(C)NCCNC(=O)C(c1ccccc1)N1CC2(CCN(c3ncnc4sc(CC(F)(F)F)cc34)C2)C1 (stereo not shown) [Compound 74]",
    "UNITS SYMBOL": "µM",
    "LIMIT QUALIFIER": "=",
    "IC50": 6.1
  },
  {
    "COMPOUND": "CC(C)C(N1CC2(CCN(c3ncnc4sc(CC(F)(F)F)cc34)C2)C1)C1(F)CNC1 (stereo not shown) [Compound 269]",
    "UNITS SYMBOL": "µM",
    "LIMIT QUALIFIER": "=",
    "IC50": 4.6
  },
  {
    "COMPOUND": "FC(F)(F)Cc1cc2c(N3CCC4(CN(Cc5ccccc5)C4)C3)ncnc2s1 [Compound 1]",
    "UNITS SYMBOL": "µM",
    "LIMIT QUALIFIER": "=",
    "IC50": 4.6
  },
  {
    "COMPOUND": "CCN1CC(C(C(C)C)N2CC3(CCN(c4ncnc5sc(CC(F)(F)F)cc45)C3)C2)C1 (stereo not shown) [Compound 303]",
    "UNITS SYMBOL": "µM",
    "LIMIT QUALIFIER": "=",
    "IC50": 1.02
  },
  {
    "COMPOUND": "CC(C)C[C@H](c1cnn(C)c1)N1CC2(CCN(c3ncnc4sc(CC(F)(F)F)cc34)C2)C1 [Compound 247]",
    "UNITS SYMBOL": "µM",
    "LIMIT QUALIFIER": "=",
    "IC50": 2.1
  }
]

* * *

TARGET ENTITY: menin (Homo sapiens, UniProt O00255, T541A)
Sequence (O00255 with tags, fused parts or gaps T541A): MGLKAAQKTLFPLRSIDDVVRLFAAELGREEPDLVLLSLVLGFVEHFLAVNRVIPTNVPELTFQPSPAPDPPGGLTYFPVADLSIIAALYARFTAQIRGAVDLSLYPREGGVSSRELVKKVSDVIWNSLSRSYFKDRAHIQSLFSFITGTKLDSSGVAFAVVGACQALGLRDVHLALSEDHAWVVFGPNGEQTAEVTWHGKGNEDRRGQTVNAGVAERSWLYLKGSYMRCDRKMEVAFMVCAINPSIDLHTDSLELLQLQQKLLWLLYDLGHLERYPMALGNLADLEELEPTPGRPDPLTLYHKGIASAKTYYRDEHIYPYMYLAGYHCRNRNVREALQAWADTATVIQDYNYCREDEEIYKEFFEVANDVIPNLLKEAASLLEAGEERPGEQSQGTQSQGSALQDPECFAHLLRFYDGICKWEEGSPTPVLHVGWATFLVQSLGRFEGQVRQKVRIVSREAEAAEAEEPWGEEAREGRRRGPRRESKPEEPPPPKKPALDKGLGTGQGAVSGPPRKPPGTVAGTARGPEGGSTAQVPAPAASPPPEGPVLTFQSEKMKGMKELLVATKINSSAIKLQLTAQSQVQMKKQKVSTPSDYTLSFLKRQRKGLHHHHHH
ASSAY: Menin/MLL fluorescence polarization (FP) assay
Format: binding
CONDITION SET: averaged values over all measurements; read-out: Menin FP assay (IC50 (μM))
REPORTED ENDPOINT: log10 IC50 (log10 of the value in µM)

[
  {
    "MOLECULE": "FC(F)(F)Cc1cc2c(N3CC4(CN(Cc5cn[nH]c5)C4)C3)ncnc2s1 [Compound 40]",
    "TARGET ENTITY": "menin (Homo sapiens, UniProt O00255, T541A)",
    "log10 IC50": -0.08
  },
  {
    "MOLECULE": "C[C@H](c1cnn(C)c1)N1CC2(CCN(c3ncnc4sc(CC(F)(F)F)cc34)C2)C1 [Compound 198]",
    "TARGET ENTITY": "menin (Homo sapiens, UniProt O00255, T541A)",
    "log10 IC50": -0.85
  },
  {
    "MOLECULE": "CC(C)[C@H](C1CNC1)N1CC2(CCN(c3ncnc4sc(CC(F)(F)F)cc34)C2)C1 [Compound 273]",
    "TARGET ENTITY": "menin (Homo sapiens, UniProt O00255, T541A)",
    "log10 IC50": -1.68
  },
  {
    "MOLECULE": "O=C([C@@H]1C[C@@H](F)CN1)N1CC2(C1)CN(c1ncnc3sc(CC(F)(F)F)cc13)C2 [Compound 89]",
    "TARGET ENTITY": "menin (Homo sapiens, UniProt O00255, T541A)",
    "log10 IC50": -1.35
  },
  {
    "MOLECULE": "[CH3][Ge]([CH3])([CH3])[CH2]N1CC2(CCN(c3ncnc4sc(CC(F)(F)F)cc34)C2)C1 [Compound 31]",
    "TARGET ENTITY": "menin (Homo sapiens, UniProt O00255, T541A)",
    "log10 IC50": -1.06
  },
  {
    "MOLECULE": "FC(F)(F)Cc1cc2c(N3CCCC4(CCN(Cc5ccccc5)C4)C3)ncnc2s1 (racemic) [Compound 18]",
    "TARGET ENTITY": "menin (Homo sapiens, UniProt O00255, T541A)",
    "log10 IC50": -0.85
  },
  {
    "MOLECULE": "FC(F)(F)Cc1cc2c(N3CCC4(CN(Cc5cncc(Cl)n5)C4)C3)ncnc2s1 [Compound 11]",
    "TARGET ENTITY": "menin (Homo sapiens, UniProt O00255, T541A)",
    "log10 IC50": -0.12
  },
  {
    "MOLECULE": "CC(C)n1cc(CN2CC3(CCN(c4ncnc5sc(CC(F)(F)F)cc45)C3)C2)cn1 [Compound 36]",
    "TARGET ENTITY": "menin (Homo sapiens, UniProt O00255, T541A)",
    "log10 IC50": -0.40
  },
  {
    "MOLECULE": "Cn1ccc(CN2CC3(CCN(c4ncnc5sc(CC(F)(F)F)cc45)C3)C2)n1 [Compound 35]",
    "TARGET ENTITY": "menin (Homo sapiens, UniProt O00255, T541A)",
    "log10 IC50": 0.00
  },
  {
    "MOLECULE": "FC(F)(F)Cc1cc2c(N3CCC4(CN(Cc5ccnc(Cl)n5)C4)C3)ncnc2s1 [Compound 15]",
    "TARGET ENTITY": "menin (Homo sapiens, UniProt O00255, T541A)",
    "log10 IC50": -0.24
  },
  {
    "MOLECULE": "O=C([C@@H]1CC2(CC2)CN1)N1CC2(CCN(c3ncnc4sc(CC(F)(F)F)cc34)C2)C1 [Compound 86]",
    "TARGET ENTITY": "menin (Homo sapiens, UniProt O00255, T541A)",
    "log10 IC50": -1.04
  },
  {
    "MOLECULE": "Cn1cncc1CN1CC2(CCN(c3ncnc4sc(CC(F)(F)F)cc34)C2)C1 [Compound 23]",
    "TARGET ENTITY": "menin (Homo sapiens, UniProt O00255, T541A)",
    "log10 IC50": -0.02
  },
  {
    "MOLECULE": "FC(F)(F)Cc1cc2c(N3CCC4(CN(Cc5ccnnc5)C4)C3)ncnc2s1 [Compound 4]",
    "TARGET ENTITY": "menin (Homo sapiens, UniProt O00255, T541A)",
    "log10 IC50": -0.14
  },
  {
    "MOLECULE": "FC(F)(F)Cc1cc2c(N3CC[C@@]4(CCN(Cc5ccccc5)C4)C3)ncnc2s1 (single isomer, unassigned) [Compound 20a]",
    "TARGET ENTITY": "menin (Homo sapiens, UniProt O00255, T541A)",
    "log10 IC50": -1.12
  },
  {
    "MOLECULE": "FC(F)(F)Cc1cc2c(N3CCC4(CCN(Cc5ccccc5)C4)CC3)ncnc2s1 [Compound 3]",
    "TARGET ENTITY": "menin (Homo sapiens, UniProt O00255, T541A)",
    "log10 IC50": -1.00
  },
  {
    "MOLECULE": "O=C([C@@H]1CC(F)(F)CN1)N1CC2(C1)CN(c1ncnc3sc(CC(F)(F)F)cc13)C2 [Compound 90]",
    "TARGET ENTITY": "menin (Homo sapiens, UniProt O00255, T541A)",
    "log10 IC50": -0.96
  }
]
